Measured values drawn from ChEMBL document CHEMBL1201862 for this set.

# Test system: HOP-92
# Procedure text: NCI tumour cell line growth inhibition, 48 h
Calls of active or inactive are those of the source. Rule as the data show it: active = GI50 up to about 1.1 µM and inactive = higher.
Recorded endpoint: GI50

Task: Given the compound `CCOc1cc(/C=C/C=C/C=C/c2ccc(N(C)C)cc2)[s+]c2ccccc12` , write its reported GI50.
Output: 25.1 µM (inactive)

Task: Provide only the value of recorded GI50 for `C[C@@H]1C[C@](O)([C@@H](C)Cl)C(=O)O[C@@H]2CCN3CC=C(COC(=O)[C@]1(C)O)[C@H]23`
Output: > 100 µM (inactive)

Task: For the compound `COc1ccc(Nc2ccc3ccccc3c2-c2c(O)ccc3ccccc23)cc1` , give its reported GI50.
Output: 4.16 µM (inactive)

Task: Read off the recorded GI50 for `CCN1C(=O)/C(=C\c2coc3ccccc3c2=O)SC1=S`
Output: > 100 µM (inactive)

Task: Input CCOC(=O)COc1c(OC)cc(C2C3=C(COC3=O)Oc3cc4c(cc32)OCO4)cc1OC (stereo not given) , output reported GI50.
Output: 14.6 µM (inactive)

Task: Give the reported GI50 for this compound. `C=C(C)C[C@H](Sc1nc2ccccc2s1)[C@H](C)O`
Output: 24.6 µM (inactive)

Task: Provide GI50 value for the following compound: Cc1ccc(/C=C2\CCCC(CN3CCCCC3)C2=O)cc1 (stereo not given)
Output: 1.81 µM (inactive)

Task: Retrieve GI50 measured for COC(C)C(O)(C(=O)OCC1=CCN2CCC(O)C12)C(C)(C)O (stereo not given) and print it.
Output: > 100 µM (inactive)

Task: Answer with reported GI50 of `O=C1c2cccc3cc([N+](=O)[O-])cc(c23)C(=O)N1Nc1ccc([N+](=O)[O-])cc1[N+](=O)[O-]`
Output: 17.9 µM (inactive)

Task: Report measured GI50; entry is `Cn1c(=O)[nH]c2[nH]c3ccccc3c2c1=O`
Output: > 100 µM (inactive)
